target: GnRH receptor (Homo sapiens, UniProt P30968); test: NFAT reporter (luciferase) gene expression assay for antagonistic effect on GnRH receptor, HEK293 transformed with pcDNA3.1/GnRH receptor and pGL4/NFAT promoter; format: cell-based; details: HEK293, read-out: NFAT reporter activity inhibition (%) at 100 nM
Sequence (P30968 whole entry): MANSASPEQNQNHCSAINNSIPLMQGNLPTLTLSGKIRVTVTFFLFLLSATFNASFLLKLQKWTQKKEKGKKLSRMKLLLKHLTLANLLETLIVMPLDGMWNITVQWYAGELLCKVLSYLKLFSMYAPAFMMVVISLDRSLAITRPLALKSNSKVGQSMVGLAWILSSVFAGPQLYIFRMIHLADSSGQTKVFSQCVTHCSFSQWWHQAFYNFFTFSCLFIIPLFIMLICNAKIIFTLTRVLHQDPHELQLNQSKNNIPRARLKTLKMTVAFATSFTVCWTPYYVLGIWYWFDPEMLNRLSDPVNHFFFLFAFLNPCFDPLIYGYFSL
Collected inhibition at 0.1 µM values appear next to each entry.
Respond numerically; units are % and should not be typed.

[[record]]
molecule = "N#Cc1cccc(CN2CCC3(CC2)OCc2c3c(=O)n(C[C@H](N)c3ccccc3)c(=O)n2Cc2c(F)cccc2C(F)(F)F)c1"
measured_result = 67

[[record]]
molecule = "Cc1ccc(CN2CCC3(CC2)OCc2c3c(=O)n(C[C@H](N)c3ccccc3)c(=O)n2Cc2c(F)cccc2C(F)(F)F)cc1"
measured_result = 17

[[record]]
molecule = "COc1cccc(CN2CCC3(CC2)OCc2c3c(=O)n(C[C@H](N)c3ccccc3)c(=O)n2Cc2c(F)cccc2C(F)(F)F)c1"
measured_result = 34


# next compound below
Param readout= inhibition at 0.1 µM; system= GnRH receptor (Homo sapiens, UniProt P30968); entry= CC(C)(C)CN1CCC2(CC1)OCc1c2c(=O)n(C[C@H](N)c2ccccc2)c(=O)n1Cc1c(F)cccc1C(F)(F)F ; returns value. 15

* * *

molecular target: UniProtKB P30968; test: GnRH receptor-membrane binding assay ([125I]-D-Trp6-LHRH displacement); set-up: purchased PerkinElmer; host or cells: CHO-K1 (ATCC CCL-61), stably transfected; conditions: compound at 10 nM; 0.2 nM [125I]-D-Trp6-LHRH; CHO-K1 GnRH receptor membrane; read-out: GnRH binding inhibition (%) at 10 nM
Collected inhibition at 0.01 µM values appear next to each entry.
Respond numerically; units are % and should not be typed.

Please review the entries below; each comes with its answer.
[[record]]
compound = "COC(=O)c1cccc(CN2CCC3(CC2)OCc2c3c(=O)n(C[C@H](N)c3ccccc3)c(=O)n2Cc2c(F)cccc2C(F)(F)F)c1 [Example 1-19]"
measured_metric = "inhibition at 0.01 µM"
measured_result = 97.5

[[record]]
compound = "N[C@@H](Cn1c(=O)c2c(n(Cc3c(F)cccc3C(F)(F)F)c1=O)CCC21CCN(Cc2ccc(C(F)(F)F)o2)CC1)c1ccccc1 [Example 3-5]"
measured_metric = "inhibition at 0.01 µM"
measured_result = 101


# next compound below
Any idea what inhibition at 0.01 µM was measured for N[C@@H](Cn1c(=O)c2c(n(Cc3c(F)cccc3F)c1=O)COC21CCN(Cc2ccc(C(F)(F)F)o2)CC1)c1ccccc1 [Example 1-42] ? 93.9
